# tested system: Aspartate--tRNA(Asp/Asn) ligase (Mycobacterium tuberculosis (strain ATCC 25618 / H37Rv)) (UniProt P9WFW3)
# Sequence (P9WFW3 whole entry): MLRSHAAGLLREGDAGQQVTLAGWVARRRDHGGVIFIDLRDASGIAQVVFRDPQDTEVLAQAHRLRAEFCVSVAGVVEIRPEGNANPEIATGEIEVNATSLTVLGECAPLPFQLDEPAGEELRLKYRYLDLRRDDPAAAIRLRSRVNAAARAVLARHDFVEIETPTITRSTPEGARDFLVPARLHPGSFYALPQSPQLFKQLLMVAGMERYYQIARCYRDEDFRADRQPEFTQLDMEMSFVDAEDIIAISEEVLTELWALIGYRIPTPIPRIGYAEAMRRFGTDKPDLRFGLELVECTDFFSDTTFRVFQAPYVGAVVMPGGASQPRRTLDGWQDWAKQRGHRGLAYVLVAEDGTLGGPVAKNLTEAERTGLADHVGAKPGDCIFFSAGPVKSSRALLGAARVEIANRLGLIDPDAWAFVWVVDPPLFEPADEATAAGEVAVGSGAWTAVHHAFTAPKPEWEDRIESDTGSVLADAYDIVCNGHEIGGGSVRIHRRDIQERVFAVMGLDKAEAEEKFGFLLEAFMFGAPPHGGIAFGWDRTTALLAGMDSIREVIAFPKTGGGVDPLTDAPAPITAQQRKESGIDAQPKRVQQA
# assay: Assay for Asp RNA synthetase-1 from Mycobacterium tuberculosis
# Assay type: functional
# Design: scale not given: in the data most compounds retested in dose-response had high values
# setup conditions: 30 µM
property measured: Percent Effect (%)
Give the value, in units of %, as a plain number.

QUERY: Entry `CCO[C@@H]1CO[C@@]2(CCCN(Cc3scnc3C)C2)C1` has what Percent Effect?
RESULT: -7.13

QUERY: Entry O=C(CCN1CCOC(Cn2cccn2)C1)NC1CCCC1 (stereo not given) has what Percent Effect?
RESULT: -1.67

QUERY: Entry COc1ccc(C2=CCN(C(=O)CN(C)CC(C)C#N)CC2)cc1 (stereo not given) has what Percent Effect?
RESULT: -3.34

QUERY: Entry `CCn1cnnc1C1CCN(C(=O)c2cccc3c2ccn3C)CC1` has what Percent Effect?
RESULT: -3.52

QUERY: Entry COc1ccc(CNCC(C)Oc2ccccn2)cc1Br (stereo not given) has what Percent Effect?
RESULT: -3.54
